- Assay Notes: chemical genetic growth profiling, strain panel (AID 1159580);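 further: tested at 20 µM; growth read once vehicle control cultures reached saturation at 30 °C; 1 = growth at the plate median or of vehicle wells; lower values mean less growth of the strain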
- Experimental Context: S. cerevisiae deletion strains, growth OD, locus YLR262C, strain YPT6 (second series), active compounds read low
About 2,000 (36%) of roughly 5,500 compounds were called active. About 18% were inconclusive and are not listed. This is one part of the list.
Readout Kind: normalized growth
// keep it numeric: no unit symbol after the value

Respond only with normalized growth recorded for CCCCCC/C=C\CCCCCCCc1cccc(O)c1C(=O)O 0.939

Please supply the value of reported normalized growth for the item Oc1cc2c(cc1O)C(c1ccccc1)CNCC2 (stereo not given) 0.919

Look up normalized growth of CC(C)C1CCC(C(=O)N[C@@H](Cc2ccccc2)C(=O)O)CC1 (stereo not given in full) and report it. 0.955

Please indicate normalized growth recorded for O=C(/C=C/c1ccccc1)c1ccc(O)cc1O 0.0856

Please report the measured normalized growth for C=CC[C@@H]1/C=C(\C)C[C@H](C)C[C@H](OC)[C@H]2O[C@@](O)(C(=O)C(=O)N3CCCC[C@H]3C(=O)O[C@H](/C(C)=C/[C@@H]3CC[C@@H](O)[C@H](OC)C3)[C@H](C)[C@@H](O)CC1=O)[C@H](C)C[C@@H]2OC 0.137

Tell me measured normalized growth for O=C(/C=C/c1ccc(O)cc1)c1ccc(O)cc1O please. 1.02

Complete the entry with normalized growth for CC(=O)c1ccc[nH]1 1.03

Give the measured normalized growth for O=C(/C=C/c1ccccc1)c1ccc(O[C@@H]2O[C@H](CO)[C@@H](O)[C@H](O)[C@H]2O)cc1O 0.911

Quote normalized growth reported for NS(=O)(=O)c1cc2c(cc1Cl)NCNS2(=O)=O please. 0.992

Look up and state reported normalized growth for CNC(=O)N(C)c1nnc(C(C)(C)C)s1 1.03

* * *

Answer each item with its documented normalized growth.
- Assay Notes: chemical genetic growth profiling, strain panel (AID 1159580);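 further: tested at 20 µM; growth read once vehicle control cultures reached saturation at 30 °C; 1 = growth at the plate median or of vehicle wells; lower values mean less growth of the strain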
- Experimental Context: S. cerevisiae deletion strains, growth OD, locus YBR009C, strain hhf1, active compounds read low
The whole screen tested about 5,500 compounds, of which about 2,000 (36%) were called active. Inconclusive results (about 18%) are left out. This is one part of the list.
Answer with a bare number; do not write a unit.

Note normalized growth for the molecule shown: COc1cc(O)ccc1C(C)=O 1.02

Return normalized growth for the following molecule: CC(C)=CCC/C(C)=C/CO 1.01

Retrieve normalized growth measured for COc1ccc([C@@H](C)C(=O)c2ccc(O)cc2O)cc1 and print it. 0.962

Item CCCc1ncc(C[n+]2ccccc2C)c(N)n1 : provide normalized growth 1.03

# return recorded normalized growth for entry COc1cc(Cc2cnc(N)nc2N)cc(OC)c1OC 1.01

Query normalized growth for O=C1C=CC(=O)c2c(O)c(Cl)c(Cl)c(O)c21 0.0757

// fetch normalized growth given entry CNC(C)[C@@H]1CC[C@@H](N)[C@@H](OC2[C@@H](N)C[C@@H](N)[C@H](OC3OC[C@](C)(O)[C@H](NC)[C@H]3O)[C@H]2O)O1 (stereo partly specified) 1.01

Tell me its normalized growth given Oc1cc2c(cc1O)C(c1ccccc1)CNCC2 (stereo unspecified) as the entry. 1.05

// Input: CC(C)[C@@H]1CC[C@@H](C)CC1=O . Output its normalized growth only. 0.981

Complete the entry with normalized growth for CN1CCN(C2=Nc3cc(Cl)ccc3Nc3ccccc32)CC1 1.01

Respond only with normalized growth recorded for COCC1=C(C(=O)OC(C)OC(=O)OC(C)C)N2C(=O)[C@@H](NC(=O)/C(=N\OC)c3csc(N)n3)[C@H]2SC1 (stereo partly specified) 0.96

// provenance: PubChem BioAssay AID1159580
